- Test System: T1, similar peptide SP-05-0005, source protein not stated peptide on HLA-A*02:01 (human)
- T1 peptide: KIEEFLEAV
- Test Name: killing
Experimental Readout: binding result

INSERT INTO assay_data (binder, experimental_readout, recorded_value) VALUES
  ('TCR-5 (TCR, V domains shown) Valpha: QQLNQSPQSMFIQEGEDVSMNCTSSSIFNTWLWYKQDPGEGPVLLIALYKAGELTSNGRLTAQFGITRKDSFLNISASIPSDVGIYFCAGGYNYGQNFVFGPGTRLSVLP Vbeta: GVTQTPKHLITATGQRVTLRCSPRSGDLSVYWYQQSLDQGLQFLIQYYNGEERAKGNILERFSAQQFPDLHSELNLSSLELGDSALYFCASSAGLAGGYEQYFGPGTRLTVT', 'binding result', 'no recognition'),
  ('TCR-8 (TCR, V domains shown) Valpha: QKVTQAQTEISVVEKEDVTLDCVYETRDTTYYLFWYKQPPSGELVFLIRRNSFDEQNEISGRYSWNFQKSTSSFNFTITASQVVDSAVYFCALSGRGSGTYKYIFGTGTRLKVLA Vbeta: GVIQSPRHLIKEKRETATLKCYPIPRHDTVYWYQQGPGQDPQFLISFYEKMQSDKGSIPDRFSAQQFSDYHSELNMSSLELGDSALYFCASSAGTSYNEQFFGPGTRLTVL', 'binding result', 'no recognition'),
  ('TCR-11 (TCR, V domains shown) Valpha: IQVEQSPPDLILQEGANSTLRCNFSDSVNNLQWFHQNPWGQLINLFYIPSGTKQNGRLSATTVATERYSLLYISSSQTTDSGVYFCAVNTGTASKLTFGTGTRLQVTL Vbeta: GVTQTPKFQVLKTGQSMTLQCAQDMNHNSMYWYRQDPGMGLRLIYYSASEGTTDKGEVPNGYNVSRLNKREFSLRLESAAPSQTSVYFCASSPRGQGRSYEQYFGPGTRLTVT', 'binding result', 'no recognition'),
  ('TCR-10 (TCR, V domains shown) Valpha: QNIDQPTEMTATEGAIVQINCTYQTSGFNGLFWYQQHAGEAPTFLSYNVLDGLEEKGRFSSFLSRSKGYSYLLLKELQMKDSASYLCAVPAPYTGTASKLTFGTGTRLQVTL Vbeta: GVTQTPKFQVLKTGQSMTLQCAQDMNHNSMYWYRQDPGMGLRLIYYSASEGTTDKGEVPNGYNVSRLNKREFSLRLESAAPSQTSVYFCASSEGYSTYNEQFFGPGTRLTVL', 'binding result', 'no recognition'),
  ('TCR-15 (TCR, V domains shown) Valpha: KQEVTQIPAALSVPEGENLVLNCSFTDSAIYNLQWFRQDPGKGLTSLLLIQSSQREQTSGRLNASLDKSSGRSTLYIAASQPGDSATYLCAVLLTGKLIFGQGTTLQVKP Vbeta: GVTQTPRYLIKTRGQQVTLSCSPISGHRSVSWYQQTPGQGLQFLFEYFSETQRNKGNFPGRFSGRQFSNSRSEMNVSTLELGDSALYLCASSGGPGPSGEQYFGPGTRLTVT', 'binding result', 'no recognition');
